As shown below, each of these compounds has a reported normalised cell number value.
- test name: differential killing of epithelial or mesenchymal cells, primary screen, imaging, PC-3E GFP, TEM4-18 mCherry, co-culture (AID 1345086);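 further: cells exposed to compound for 72 h before imaging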
- assay conditions: imaging cell counts, measured here: mesenchymal TEM4-18 mCherry cell survival, at 1 µM
measure name: normalised cell number

# compound, quantitative readout
data = [
    ("NCC(=O)c1ccccc1", 1.02),
    ("COP(=S)(OC)Oc1ccc(SC)c(C)c1", 1),
    ("COc1cccc([C@]2(O)CCCC[C@H]2CN(C)C)c1", 1.5),
    ("CCCCCCCCCCCCCCCC[n+]1ccccc1", 0.4),
    ("CC(C)=CCC[C@H](C)[C@H]1CC[C@]2(C)C[C@H]3[C@@H](C(=O)C[C@@]3(C)O)/C(C=O)=C\\C[C@@H]12", 0.8),
    ("COc1cc2occc2c2oc(=O)ccc12", 1.14),
    ("CC(CCc1ccccc1)NC(C)C(O)c1ccc(O)cc1 (stereo not drawn)", 1.24),
    ("CC(=O)O[C@H]1C(=O)[C@@]2(C)C([C@H](OC(=O)c3ccccc3)[C@]3(O)C[C@H](O)C(C)=C1C3(C)C)[C@]1(OC(C)=O)CO[C@@H]1C[C@@H]2O (stereo partly drawn)", 0.9),
]

----------
- test name: growth inhibition of DIPG glioma cells, dose response, cell-based, SU-DIPG-XIII, MIPE5.0, CellTiter-Glo, qHTS (AID 1347064);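 on AC50: cells exposed to compound for 48 hours before the viability read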
- assay conditions: SU-DIPG-XIII viability, CellTiter-Glo ATP luminescence
Results filed as inconclusive are left out. Activity calls are given as the source filed them. No cut-off is given here; in the data, nearly all actives have AC50 up to about 23 µM.
Possible outcomes: 1 = active, 0 = inactive

# compound, assigned label
rows = [
    ("CC(C)(C)c1cc(C=C(C#N)C#N)cc(Br)c1O", 1),
    ("O=P1(NCCCl)OCCCN1CCCl (stereo unspecified)", 0),
    ("COCC1(CO)C(=O)C2CCN1CC2 (stereo unspecified)", 1),
    ("N#CC(O[C@@H]1O[C@H](CO[C@@H]2O[C@H](CO)[C@@H](O)[C@H](O)[C@H]2O)[C@@H](O)[C@H](O)[C@H]1O)c1ccccc1 (stereo partly specified)", 0),
    ("C[C@]12CC[C@H]3[C@@H](CCC4=CC(=O)CC[C@@]43C)[C@@H]1CC[C@@H]2OC(=O)CCC1CCCC1", 0),
    ("O=C1C=CC[C@@H]2[C@H]3CCCN4CCC[C@@H](CN12)[C@@H]34", 0),
]

----------
Entries and their inhibition values follow.
- system under test: 6-phosphogluconate dehydrogenase, decarboxylating (Homo sapiens) (UniProt P52209)
- Sequence (P52209 whole entry, looked up): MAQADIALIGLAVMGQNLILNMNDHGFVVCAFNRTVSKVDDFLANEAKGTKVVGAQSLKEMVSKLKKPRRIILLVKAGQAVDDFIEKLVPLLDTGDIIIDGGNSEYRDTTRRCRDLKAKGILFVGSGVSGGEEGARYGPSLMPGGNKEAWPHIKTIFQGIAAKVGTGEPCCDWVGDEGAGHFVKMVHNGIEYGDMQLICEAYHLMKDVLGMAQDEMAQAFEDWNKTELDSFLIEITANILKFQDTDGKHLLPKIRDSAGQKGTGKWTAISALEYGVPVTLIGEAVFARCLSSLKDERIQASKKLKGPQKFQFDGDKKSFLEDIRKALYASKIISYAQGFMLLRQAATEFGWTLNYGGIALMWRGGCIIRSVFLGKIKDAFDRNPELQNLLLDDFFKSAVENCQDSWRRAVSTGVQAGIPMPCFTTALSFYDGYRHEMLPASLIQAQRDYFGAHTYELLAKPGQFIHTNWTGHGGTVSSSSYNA
- test name: 6PGD enzyme inhibitors, primary screen, biochemical, human, recombinant enzyme, NADPH absorbance (AID 1159550)
- assay conditions: recombinant 6PGD, NADPH absorbance 341 nm; at 10 µM; stronger effect = higher value
measure name: inhibition (%)

# molecule, quantitative readout
measured = [
    ("C=C(C)C(=O)/C(=C/C(=O)O)OC", 12.8),
    ("CNC(C)C(O)c1ccccc1 (stereo not drawn)", -20.1),
    ("COc1c2c(cc3c1OCO3)CC[N+](C)=C2", 8.25),
    ("FC(F)(F)c1cccc(N2CCNCC2)c1", 7.13),
    ("CC(C)=CCCC1(C)C=Cc2c(O)c3c(c(CC=C(C)C)c2O1)OC12C(=CC4CC1C(C)(C)OC2(C/C=C(/C)C(=O)O)C4O)C3=O (stereo not drawn)", 3.01),
    ("O=c1[nH]c2ccccc2n1C1CCN(CCCC(c2ccc(F)cc2)c2ccc(F)cc2)CC1", 13.7),
    ("CC(=O)C1CCC2C3CCC4C[C@H](O)CCC4(C)C3C[C@H](O)C12C (stereo partly drawn)", -3.34),
    ("COc1ccc(OC)c(C(O)C(C)N)c1 (stereo not drawn)", 11.8),
]

----------
The reader will find reported mean signal values listed item by item below.
- test name: modulation of C. elegans fzo-1 (AID 1259413);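 further: fzo-1 mutant C. elegans worms in liquid wells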
- assay conditions: C. elegans fzo-1 modulator screen, mean read-out; stronger effect = higher value

# compound, mean signal
measured = [
    ("CCN(CC)CCOC(=O)C(O)(c1ccccc1)c1ccccc1", 281),
    ("COc1cccc([C@@]2(O)CCCC[C@@H]2CN(C)C)c1", 274),
    ("COC(=O)N1CCN(C(=O)Cc2ccc(Cl)c(Cl)c2)C(CN2CCCC2)C1 (stereo not drawn)", 274),
    ("NC(=O)OCCCc1ccccc1", 256),
    ("CN=C1CN(O)C(c2ccccc2)=c2cc(Cl)ccc2=N1", 209),
    ("CS(=O)(=O)Nc1ccc(Cc2noc(-c3ccc4[nH]cc(CCN)c4c3)n2)cc1", 254),
    ("COc1cc2c(cc1OC)[C@@]13CCN4CC5=CCO[C@H]6CC(=O)N2[C@H]1[C@H]6[C@H]5C[C@H]43", 265),
    ("NC(=NCc1ccc(Cl)cc1)SCCCc1cnc[nH]1", 232),
    ("c1ccc2c(c1)Nc1ccccc1S2", 265),
    ("CC12CCC(=O)C[C@@H]1CC[C@@H]1[C@@H]2CCC2(C)[C@H]1CC[C@]2(C)O (stereo partly drawn)", 277),
    ("CCCC(C)(COC(N)=O)COC(=O)NC(C)C (stereo not drawn)", 258),
    ("CN[C@@H]1C[C@@H](c2ccc(Cl)c(Cl)c2)c2ccccc21", 207),
    ("C[N+]1(CCC(C(N)=O)(c2ccccc2)c2ccccc2)CCCCC1", 231),
]

----------
- Test system: Aerobactin synthetase IucA (Klebsiella pneumoniae, hypervirulent)
- test name: IucA enzyme inhibition, biochemical, LOPAC library, absorbance readout (AID 1346212);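 further: 100% = no compound wells and 0% = no enzyme wells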
- assay conditions: IucA enzyme assay, absorbance (OD) readout; concentration not given here
Activity calls are given as the source filed them. The rule behind the calls is not given here.
Possible outcomes: label 1 = active, label 0 = inactive

# compound, assigned label
measured = [
    ("Oc1ccc(-c2nc(-c3ccc(F)cc3)c(-c3ccncc3)[nH]2)cc1", "label 0"),
    ("NCCc1ccc(S(=O)(=O)F)cc1", "label 0"),
    ("OCCN1CCN(CC/C=C2/c3ccccc3Sc3ccc(C(F)(F)F)cc32)CC1", "label 0"),
    ("O=C1NC(=O)C(c2ccccc2[N+](=O)[O-])=C1Nc1ccc(O)c(Cl)c1", "label 0"),
    ("OC[C@H]1O[C@H]([S-])[C@H](O)[C@@H](O)[C@@H]1O.[Au+]", "label 1"),
    ("O=C(c1ccccc1)c1ccc2n1CCC2C(=O)O (configuration not stated)", "label 0"),
    ("CCCCC/C=C\\C/C=C\\C/C=C\\C/C=C\\CCCC(=O)NCC(=O)O", "label 0"),
    ("CNCCc1ccc(O)c(O)c1", "label 0"),
    ("CN(C)C(=O)/N=N/C(=O)N(C)C", "label 0"),
    ("CN(C)CC[C@@H](c1ccc(Cl)cc1)c1ccccn1", "label 0"),
    ("Clc1cccc(Cl)c1NC1=NCCN1", "label 0"),
    ("Nc1c2c(nc3ccccc13)CCCC2", "label 0"),
    ("CSc1ccc2c(c1)C(N1CCN(C)CC1)Cc1ccccc1S2 (configuration not stated)", "label 0"),
    ("O=C(O)Cc1ccc(O)c(O)c1", "label 0"),
    ("CC1CN(S(=O)(=O)c2cccc3cnccc23)CCN1 (configuration not stated)", "label 0"),
    ("N=C(N)c1ccccc1", "label 0"),
    ("N#Cc1cc2nc(O)c(O)nc2cc1[N+](=O)[O-]", "label 0"),
]

----------
- test name: SU-DIPG-XXV glioma cell viability, MIPE5.0 library, qHTS (AID 1347068);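 on IC50: cells exposed to compound for 48 hours before viability readout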
Records with an inconclusive call do not appear. The source made the active and inactive calls. The limit is not given here; nearly all actives have IC50 up to about 30 µM.
Outcomes: yes (1) for active, no (0) for inactive

# molecule, assigned label
rows = [
    ("C=C[C@H]1CN2CCC1C[C@@H]2[C@@H](O)c1ccnc2ccccc12 (stereo partly specified)", "no (0)"),
    ("CN1C(=O)CCS(=O)(=O)C1c1ccc(Cl)cc1 (stereo unspecified)", "no (0)"),
    ("CO/C1=C/C(C)=C\\[C@@H](C)[C@@H](O)[C@@H](C)C/C(C)=C\\C=C/[C@H](OC)[C@@H]([C@@H](C)[C@@H](O)[C@H](C)[C@@]2(O)C[C@@H](O)[C@H](C)[C@@H](C(C)C)O2)OC1=O", "yes (1)"),
    ("O=S(=O)(CC1CS1)c1ccc(Oc2ccccc2)cc1 (stereo unspecified)", "no (0)"),
    ("CN(C)CCN(C)CCc1ccc(Cl)c(Cl)c1", "no (0)"),
    ("O=C(O)CNC(=O)C1C(=O)N(C2CCCCC2)C(=O)N(C2CCCCC2)C1=O", "no (0)"),
]

Where these numbers come from: PubChem BioAssay
